These entries and their values trace back to PubChem BioAssay (NCATS).

- Test system: WaGa
- run-description: qHTS assay to identify novel small-molecules to repurpose for Merkel cell carcinoma treatment (AID 1296009); note: nearly all actives have a fitted effect of over 60% in size
- condition-notes: MCC and control cell lines, CellTiter-Glo viability, 72 h; series mostly up to 46 µM
- Description: MCC is a rare and aggressive neuroendocrine skin cancer with limited treatment options. Approximately 80% of MCCs have the Merkel cell polyomavirus (MCPyV) DNA integrated into the host genome (virus-positive: VP-MCC) and viral oncogenes drive oncogenesis. The remaining MCCs are virus-negative (VN-MCC) and are caused by UV mutagenesis. […] Using cell viability as a readout (CellTiter-Glo assay) we found both overlapping and distinct drugs that can be repurposed for the treatment of VP-MCC and VN-MCC. […]
Results filed as inconclusive are left out. Active and inactive are the calls of the source. Calls come from the whole dose curve; as a rule, active = well fitted inhibition curve with a large enough effect; inconclusive = small, poorly fitted or top-dose-only effect; inactive = flat fitted curve, though single readings scatter.
Outcome codes: active, inactive

compound: Cc1ccn(-c2ccc(-c3ncco3)cc2)c(=O)c1-c1ccc2nc(N)ncc2c1
answer-label: inactive

compound: CC=C(C)C(=O)O[C@H]1C(C)=C[C@]23C(=O)[C@@H](C=C(CO)[C@@H](O)[C@]12O)[C@H]1[C@@H](C[C@H]3C)C1(C)C
answer-label: inactive

compound: COc1ccc(-c2coc3cc(O)ccc3c2=O)cc1
answer-label: inactive

compound: Cc1ccc(Nc2cc(-c3cccc(N4C(=O)c5ccccc5C4=O)c3)ncn2)cc1NS(C)(=O)=O
answer-label: inactive

compound: CC(C)C(=O)Nc1ncc(-c2cc(C(F)F)nn2-c2c(Cl)cccc2Cl)s1
answer-label: inactive

compound: CC(C)=CC[C@@H](O)C1=CC(=O)c2c(O)ccc(O)c2C1=O
answer-label: active

compound: COc1ccc2c(Oc3ccc(NC(=O)c4c(C)n(CC(C)(C)O)n(-c5ccccc5)c4=O)cc3F)ccnc2c1
answer-label: inactive

compound: CCS(=O)(=O)N1CC(CC#N)(n2cc(-c3ncnc4[nH]ccc34)cn2)C1
answer-label: inactive

compound: O=C(O)C(O)Cc1ccc(O)c(O)c1 (centres undefined)
answer-label: inactive

###

- run-description: qHTS of pediatric cancer cell lines to identify multiple opportunities for drug repurposing: Confirmatory screen for DAOY cells (AID 1347114); note: nearly all actives have a fitted effect of over 65% in size
- condition-notes: DAOY medulloblastoma cells viability, cytotoxicity qHTS; series mostly up to 45.9 µM
Records with an inconclusive call do not appear. The source made the active and inactive calls. Calls come from the whole dose curve; as a rule, active = well fitted cell-killing curve with a large enough effect; inconclusive = small, poorly fitted or top-dose-only effect; inactive = no such curve, though single readings can be large or run the other way.
Outcome codes: T for active, F for inactive

compound-smiles: COc1ccc(-c2coc3cc(O)cc(O)c3c2=O)cc1
answer-label: F
//
compound-smiles: O=c1[nH]cnc2c1ncn2[C@H]1CC[C@@H](CO)O1
answer-label: F
//
compound-smiles: CC1(C)CCC[C@@]2(C)[C@@H]1CC[C@@]1(C)OC(=O)C[C@H]21
answer-label: F
//
compound-smiles: Oc1ccc(C2CCN(c3ccnc4ccccc34)CC2)cc1O
answer-label: T
//
compound-smiles: CCOc1ccc(Nc2nc(-c3c(C)nc4ccccn34)cs2)cc1
answer-label: T
//
compound-smiles: O=C1C(Cl)=C(NCCN2CCOCC2)C(=O)c2ncccc21
answer-label: T
//
compound-smiles: N[C@@]1(C(=O)O)CS(=O)(=O)[C@H]2[C@H](C(=O)O)[C@H]21
answer-label: F
//
compound-smiles: O=C1NC(=O)C(=Cc2ccc3c(c2)OC(F)(F)O3)S1
answer-label: T
//
compound-smiles: CCCCCCCCCCCC1=C(O)C(=O)C=C(O)C1=O
answer-label: F
//
compound-smiles: O=C1c2ccccc2-[n+]2ccc3c([nH]c4ccccc43)c21
answer-label: T
//
compound-smiles: NC1=N[C@@]2(c3cc(NC(=O)c4ccc(F)cn4)ccc3F)COC[C@@H]2CS1
answer-label: F

###

- run-description: qHTS of pediatric cancer cell lines to identify multiple opportunities for drug repurposing: Confirmatory screen for control Hh wild type fibroblast cells (AID 1347121);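 note: plate controls were DMSO for no effect and bortezomib for full effect; nearly all actives have a fitted effect of over 70% in size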
- condition-notes: viability qHTS; series mostly up to 45.9 µM
Records with an inconclusive call do not appear. Calls of active or inactive are those of the source. Calls follow the shape of the dose curve; as a rule, active = well fitted cell-killing curve with a large enough effect; inconclusive = small, poorly fitted or top-dose-only effect, or effect the other way; inactive = flat fitted curve, though single readings scatter.
endpoint: outcome

compound-smiles: CO[C@H]1C(=O)[C@]2(C)[C@@H](OC)C[C@H]3OC[C@@]3(OC(C)=O)[C@H]2[C@H](OC(=O)c2ccccc2)[C@]2(O)C[C@H](OC(=O)[C@H](O)[C@@H](NC(=O)OC(C)(C)C)c3ccccc3)C(C)=C1C2(C)C
value-measured: inactive
//
compound-smiles: OC[C@H]1O[C@@H](n2cnc3c2NC=NC[C@@H]3O)C[C@H]1O
value-measured: inactive
//
compound-smiles: COc1cc2nc(-c3ccc(N4CCN(C)CC4)cc3)nc(NCCN3CCOCC3)c2cc1OC
value-measured: inactive
//
compound-smiles: O=C(Nc1cccc(Br)c1)c1cccc(S(=O)(=O)N2CCCCCC2)c1
value-measured: inactive

###

- run-description: qHTS of pediatric cancer cell lines to identify multiple opportunities for drug repurposing: Primary screen for Rh18 cells (AID 1347102); note: nearly all actives have a fitted effect of over 65% in size
- condition-notes: Rh18 rhabdomyosarcoma viability, CellTiter-Glo luminescence, 48 h; series mostly up to 46 µM
Results filed as inconclusive are left out. Active and inactive are the calls of the source. Calls come from the whole dose curve; as a rule, active = well fitted cell-killing curve with a large enough effect; inconclusive = small, poorly fitted or top-dose-only effect; inactive = flat fitted curve, though single readings scatter.
Outcome codes: yes (1) = active, no (0) = inactive

molecule: CN(C)c1cc(NC(=O)CNC(C)(C)C)c(O)c2c1C[C@@H]1C[C@H]3[C@H](N(C)C)C(=O)C(C(N)=O)=C(O)[C@@]3(O)C(=O)C1=C2O
answer-label: no (0)

molecule: O=C1Nc2ccc(Cl)cc2C(C#CC2CC2)(C(F)(F)F)O1 (configuration not stated)
answer-label: no (0)

molecule: CN(C)CCC(c1ccccc1)c1ccccn1 (configuration not stated)
answer-label: no (0)

molecule: CCc1ccc(C=C2SC(=S)NC2=O)cc1
answer-label: no (0)

molecule: CC(=O)N(C)C1(c2ccccc2)CCN(CCC[C@]2(c3ccc(Cl)c(Cl)c3)CCCN(C(=O)c3ccccc3)C2)CC1
answer-label: yes (1)

molecule: COc1ccccc1N1CCN(CCCNc2cc(=O)n(C)c(=O)n2C)CC1
answer-label: no (0)

molecule: Cc1nc(N)sc1-c1ccnc(Nc2ccc(N3CCOCC3)cc2)n1
answer-label: yes (1)

molecule: O=C1NC(=O)C(=Cc2ccc(-c3ccc(F)cc3)o2)S1
answer-label: no (0)

molecule: COc1ncc(-c2ccc3nccc(-c4ccnnc4)c3c2)cc1NS(=O)(=O)c1ccc(F)cc1F
answer-label: yes (1)

molecule: CCN(CC)CCOc1ccc(C(=C(Cl)c2ccccc2)c2ccccc2)cc1
answer-label: no (0)

molecule: O=C(NCc1ccccc1)c1csc(Nc2ccncn2)n1
answer-label: yes (1)

molecule: C=C1C(=O)OC2C=C(C)CCC=C(C)CCC12 (configuration not stated)
answer-label: no (0)

molecule: O=C(N[C@@H](c1ccccc1)[C@@H]1CCCCN1)c1cccc(C(F)(F)F)c1Cl
answer-label: no (0)

molecule: CC(=Cc1ccccc1)C=C1SC(=S)N(CC(=O)O)C1=O
answer-label: no (0)

molecule: CCN(CC)CCOC(=O)c1ccc(N)cc1
answer-label: no (0)

molecule: CCOc1ccc(Nc2nc(-c3c(C)nc4ccccn34)cs2)cc1
answer-label: no (0)

molecule: CC(=O)CCCCn1c(=O)c2c(ncn2C)n(C)c1=O
answer-label: no (0)

molecule: CO[C@@H](C(=O)N1Cc2[nH]nc(NC(=O)c3ccc(N4CCN(C)CC4)cc3)c2C1)c1ccccc1
answer-label: yes (1)

molecule: NCCS
answer-label: no (0)

molecule: CS(=O)(=O)N(Cc1ccco1)CC(O)Cn1c2ccccc2c2ccccc21 (configuration not stated)
answer-label: no (0)

molecule: CC(C)(Cc1ccc2ccccc2c1)NC[C@@H](O)COc1cccc(Cl)c1C#N
answer-label: no (0)

molecule: O=C(Nc1ccccc1-c1cn2c(CN3CCNCC3)csc2n1)c1cnc2ccccc2n1
answer-label: yes (1)

###

- run-description: qHTS of pediatric cancer cell lines to identify multiple opportunities for drug repurposing: Primary screen for NB1643 cells (AID 1347099); note: nearly all actives have a fitted effect of over 50% in size
- condition-notes: NB1643 neuroblastoma viability, CellTiter-Glo luminescence, 48 h; series mostly up to 46 µM
Records with an inconclusive call do not appear. Active and inactive are the calls of the source. The call rests on the fitted dose curve; in most records, active means well fitted cell-killing curve with a large enough effect; inconclusive means small, poorly fitted or top-dose-only effect; inactive means no such curve, though single readings can be large or run the other way.
Outcome codes: true (active), false (inactive)

molecule: CN(C)Cc1ccc(-c2nc3cccc4c3n2CCNC4=O)cc1
answer-label: true
--
molecule: CC(C)(C)Cn1c(N)nc2ccc(-c3[nH]c(C(C)(C)C)nc3-c3ccc(F)cc3)nc21
answer-label: true
--
molecule: CC(=O)CCCCn1c(=O)c2c(ncn2C)n(C)c1=O
answer-label: false
--
molecule: CNC1CCC(N(Cc2cccc(-c3ccncc3)c2)C(=O)c2sc3c(F)ccc(F)c3c2Cl)CC1 (stereo not given)
answer-label: true
--
molecule: NC1CCC(Nc2nc(Nc3ccc(C(=O)N4CCCCC4)cc3)c3ncn(-c4cccc(F)c4)c3n2)CC1 (stereo not given)
answer-label: false

###

- run-description: Quantitative High-Throughput drug screen in 47 multiple myeloma cell lines against the NCATS MIPE library collection: KHM11_PLB cell viability assay (AID 1918962); note: nearly all actives have a fitted effect of over 35% in size
- condition-notes: KHM11 myeloma cell viability, CellTiter-Glo ATP luminescence, 48 h; series mostly up to 45.8 µM
Results filed as inconclusive are left out. Active and inactive are the calls of the source. Calls come from the whole dose curve; as a rule, active = well fitted cell-killing curve with a large enough effect; inconclusive = small, poorly fitted or top-dose-only effect, or effect the other way; inactive = no such curve, though single readings can be large or run the other way.
Outcome codes: yes (1) (active), no (0) (inactive)

compound: CC=C(C)C(=O)O[C@H]1C(C)=C[C@]23C(=O)[C@@H](C=C(CO)[C@@H](O)[C@]12O)[C@H]1[C@@H](C[C@H]3C)C1(C)C
answer-label: yes (1)
--
compound: O=C1C[C@@H](c2ccc(O)cc2)Oc2cc(O)cc(O)c21
answer-label: no (0)
--
compound: CC1(C)Cc2c(sc(NC(=S)NC(=O)c3ccccc3)c2C(=O)O)CO1
answer-label: no (0)
--
compound: CCC(CC)[C@H](NC(C)=O)[C@@H]1[C@H](O)[C@@H](C(=O)O)C[C@@H]1N=C(N)N
answer-label: no (0)
--
compound: NS(=O)(=O)c1cccc2c1C(=O)c1cccc(O)c1C2=O
answer-label: yes (1)
--
compound: CC(C)C[C@H](CC(=O)O)C(=O)N[C@@H](Cc1c[nH]c2ccccc12)C(=O)N[C@@H](C)c1ccccc1
answer-label: no (0)
--
compound: CC(C)OC(=O)CCCC=CC[C@@H]1[C@H](C=C[C@@H](O)COc2cccc(C(F)(F)F)c2)[C@H](O)C[C@@H]1O
answer-label: yes (1)
--
compound: OC[C@H]1O[C@@H](n2cnc3c2NC=NC[C@@H]3O)C[C@H]1O
answer-label: no (0)
--
compound: Oc1ccc(C2CCN(c3ccnc4ccccc34)CC2)cc1O
answer-label: yes (1)
--
compound: CC(C)(C)COc1ccc(-n2cc(C(=O)O)cn2)cc1C#N
answer-label: no (0)
--
compound: COc1cccc([C@@H](C)NCCCc2ccccc2Cl)c1
answer-label: no (0)
--
compound: CN(C)Cc1cccc(N=C(c2ccccc2)c2c(O)[nH]c3cc(C(=O)N(C)C)ccc23)c1
answer-label: yes (1)
--
compound: CC(=O)O[C@]1(C(C)=O)CC[C@@H]2[C@@H]3C[C@H](C)C4=CC(=O)CC[C@]4(C)[C@H]3CC[C@@]21C
answer-label: no (0)
--
compound: O=c1cc(-c2ccccc2)oc2cc(O)cc(O)c12
answer-label: no (0)
--
compound: O=c1cc(N2CCOCC2)oc2c(-c3cccc4c3sc3ccccc34)cccc12
answer-label: yes (1)
--
compound: O=c1ccn([C@@H]2O[C@H](CO)[C@H](O)[C@H]2O)c(=O)[nH]1
answer-label: no (0)
--
compound: CNC1CCC(N(Cc2cccc(-c3ccncc3)c2)C(=O)c2sc3c(F)ccc(F)c3c2Cl)CC1 (stereo not drawn)
answer-label: yes (1)
--
compound: Nc1ncnc2c1nc(Cl)n2[C@@H]1O[C@H](CO)[C@@H](O)[C@@H]1O
answer-label: yes (1)
--
compound: O=C(OCC#CCSc1nnc(-c2cccc3ccccc23)o1)c1cc2ccccc2s1
answer-label: no (0)
--
compound: O=C(CCCCCCC(=O)Nc1ccccc1)NO
answer-label: yes (1)
--
compound: COc1cc2ncnc(Nc3ccc(F)c(Cl)c3)c2cc1OCCCN1CCOCC1
answer-label: yes (1)
--
compound: C=C1C(=O)OC2C=C(C)CCC=C(C)CCC12 (stereo not drawn)
answer-label: no (0)
--
compound: Cc1c(O)cccc1C(=O)N[C@@H](CSc1ccccc1)[C@H](O)CN1C[C@H]2CCCC[C@@H]2C[C@@H]1C(=O)NC(C)(C)C
answer-label: yes (1)
--
compound: Cc1[nH]c(C=C2C(=O)Nc3ccc(S(=O)(=O)Cc4c(Cl)cccc4Cl)cc32)c(C)c1C(=O)N1CCC[C@H]1CN1CCCC1
answer-label: yes (1)
--
compound: N#C[C@H]1C[C@H]2C[C@@H]2N1C(=O)[C@@H](N)C12CC3CC(CC(O)(C3)C1)C2
answer-label: no (0)
--
compound: COc1cc(O)c2c(c1)C(=O)c1cc(C)cc(O)c1C2=O
answer-label: no (0)
--
compound: CCc1ccc(OCc2ccccc2C(=O)Nc2ccc3nc(C)cc(N)c3c2)cc1
answer-label: yes (1)
--
compound: CN(C[C@@H]1COCCO1)S(=O)(=O)Nc1ccc2ccc3ncc(-c4cnn(C)c4)cc3c(=O)c2c1
answer-label: yes (1)
--
compound: O=C(O)[C@H]1O[C@H](Oc2cc3oc(-c4ccccc4)cc(=O)c3c(O)c2O)[C@H](O)[C@@H](O)[C@H]1O
answer-label: yes (1)
--
compound: Cc1ccc(C(=O)Nc2cccc(C(F)(F)F)c2)cc1Nc1nc(-c2cccnc2)nc2c1cnn2C
answer-label: yes (1)
--
compound: N#CC1(c2ccc(NC(=O)c3cccnc3NCc3ccncc3)cc2)CCCC1
answer-label: no (0)
--
compound: COc1ccc(C2CC(c3ccccc3)=NN2c2ccc(S(N)(=O)=O)cc2)cc1 (stereo not drawn)
answer-label: no (0)
--
compound: O=C(CCN1CCN(C(=O)OCc2cc(Cl)cc(Cl)c2)CC1)c1ccc2[nH]c(=O)oc2c1
answer-label: yes (1)
--
compound: C=C1C(=O)OC(CCCCCCCC)C1C(=O)O (stereo not drawn)
answer-label: no (0)
--
compound: C[C@]12CCC3c4ccc(O)cc4CCC3C1CCC2=O (stereo partly drawn)
answer-label: no (0)
--
compound: CN(C)Cc1ccc(-c2nc3cccc4c3n2CCNC4=O)cc1
answer-label: yes (1)
--
compound: CN1[C@@H]2CCC[C@@H]1CC(NC(=O)c1nn(C)c3ccccc13)C2 (stereo partly drawn)
answer-label: no (0)
--
compound: C=C1C(=O)[C@@]23C(CC[C@@H]1[C@H]2O)[C@@]12CO[C@]3(O)[C@@H](O)[C@@H]1C(C)(C)CC[C@@H]2O (stereo partly drawn)
answer-label: yes (1)
